Ref: ChEMBL document CHEMBL6109154

- assay target: Protein arginine N-methyltransferase 3 (Homo sapiens)
- Sequence (O60678 whole entry, the tested form may be a part): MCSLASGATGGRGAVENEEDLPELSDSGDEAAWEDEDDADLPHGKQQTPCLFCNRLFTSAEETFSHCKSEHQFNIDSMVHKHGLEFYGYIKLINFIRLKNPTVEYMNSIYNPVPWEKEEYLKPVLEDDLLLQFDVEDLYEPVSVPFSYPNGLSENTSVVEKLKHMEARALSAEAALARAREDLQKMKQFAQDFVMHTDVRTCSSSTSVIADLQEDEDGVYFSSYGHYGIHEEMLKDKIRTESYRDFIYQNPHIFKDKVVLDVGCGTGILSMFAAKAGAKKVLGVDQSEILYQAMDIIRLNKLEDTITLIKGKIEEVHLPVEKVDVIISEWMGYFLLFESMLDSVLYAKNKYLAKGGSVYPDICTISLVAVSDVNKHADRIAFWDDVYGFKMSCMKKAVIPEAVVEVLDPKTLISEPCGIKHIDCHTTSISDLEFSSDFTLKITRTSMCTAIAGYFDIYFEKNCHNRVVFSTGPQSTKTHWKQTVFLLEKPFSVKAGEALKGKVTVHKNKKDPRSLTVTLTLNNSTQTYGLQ
- assay explanation: Inhibition of N-terminal His-tagged recombinant human PRMT3 (2 to 531 residues) extracted from Escherichia coli preincubated for 10 mins followed by substrate addition and measured after 3 hrs by MTase-Glo detection reagent based luminescence analysis
property: IC50

The reported value for "COc1cc(-c2nc(Nc3ccc4nc(C)cc(N)c4c3)c3sccc3n2)cc(OC)c1OC" in terms of IC50 is > 100 µM

----------
- assay target: UniProt Q96LA8
- Sequence (Q96LA8 whole entry): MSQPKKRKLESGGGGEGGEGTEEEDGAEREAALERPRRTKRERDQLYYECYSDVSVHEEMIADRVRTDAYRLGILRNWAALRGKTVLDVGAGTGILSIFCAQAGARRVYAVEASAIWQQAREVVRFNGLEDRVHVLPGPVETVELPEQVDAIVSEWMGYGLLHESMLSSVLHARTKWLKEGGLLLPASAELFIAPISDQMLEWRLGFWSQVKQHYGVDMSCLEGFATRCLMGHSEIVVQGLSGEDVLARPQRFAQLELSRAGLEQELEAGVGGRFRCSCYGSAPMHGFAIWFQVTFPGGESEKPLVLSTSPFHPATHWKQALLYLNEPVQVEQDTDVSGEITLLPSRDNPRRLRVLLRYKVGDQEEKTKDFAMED
property: IC50

The reported value for "COc1cc(-c2nc(Nc3ccc4nc(C)cc(N)c4c3)c3sccc3n2)cc(OC)c1OC" in terms of IC50 is > 100 µM

----------
- assay target: Protein arginine N-methyltransferase 1 (Homo sapiens)
- Sequence (Q99873 whole entry): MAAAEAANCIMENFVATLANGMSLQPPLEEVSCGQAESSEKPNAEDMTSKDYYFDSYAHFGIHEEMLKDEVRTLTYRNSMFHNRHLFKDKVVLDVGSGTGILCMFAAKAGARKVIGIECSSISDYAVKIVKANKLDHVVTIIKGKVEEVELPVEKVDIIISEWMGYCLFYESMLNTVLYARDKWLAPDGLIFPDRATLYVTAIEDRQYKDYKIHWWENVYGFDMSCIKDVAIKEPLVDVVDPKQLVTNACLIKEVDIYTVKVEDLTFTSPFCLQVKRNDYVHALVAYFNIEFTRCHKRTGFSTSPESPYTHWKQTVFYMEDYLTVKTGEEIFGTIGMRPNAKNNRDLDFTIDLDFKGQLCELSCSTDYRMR
- assay explanation: Inhibition of N-terminal FLAG-tagged recombinant full length human PRMT1 extracted from baculovirus expression system preincubated for 10 mins followed by substrate addition and measured after 3 hrs by MTase-Glo detection reagent based luminescence analysis
pIC50: −log10 of the molar value.
property: pIC50

The reported value for "COc1cc(-c2nc(Nc3ccc4nc(C)cc(N)c4c3)c3sccc3n2)cc(OC)c1OC" in terms of pIC50 is < 4.00

----------
- assay target: Histone-arginine methyltransferase CARM1 (Homo sapiens, UniProt Q86X55)
- Sequence (Q86X55 whole entry): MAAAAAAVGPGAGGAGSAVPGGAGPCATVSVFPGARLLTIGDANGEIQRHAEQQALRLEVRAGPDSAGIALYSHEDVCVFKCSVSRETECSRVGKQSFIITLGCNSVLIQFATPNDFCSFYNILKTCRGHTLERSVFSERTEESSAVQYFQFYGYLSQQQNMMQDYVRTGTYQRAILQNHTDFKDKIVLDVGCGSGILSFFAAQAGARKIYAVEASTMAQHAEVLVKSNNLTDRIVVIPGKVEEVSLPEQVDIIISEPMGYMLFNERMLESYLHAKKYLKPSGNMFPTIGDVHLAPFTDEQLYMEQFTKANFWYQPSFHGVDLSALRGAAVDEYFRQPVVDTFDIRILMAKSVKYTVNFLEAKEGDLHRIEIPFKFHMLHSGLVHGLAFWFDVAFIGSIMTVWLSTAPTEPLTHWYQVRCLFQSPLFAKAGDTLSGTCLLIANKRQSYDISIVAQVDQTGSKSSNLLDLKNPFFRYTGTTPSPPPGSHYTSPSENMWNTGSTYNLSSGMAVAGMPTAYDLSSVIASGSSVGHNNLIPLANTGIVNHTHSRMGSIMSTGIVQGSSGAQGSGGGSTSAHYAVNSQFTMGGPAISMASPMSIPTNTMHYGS
- assay explanation: Inhibition of N-terminal FLAG-tagged recombinant full length human PRMT4 extracted from baculovirus expression system preincubated for 10 mins followed by substrate addition and measured after 3 hrs by MTase-Glo detection reagent based luminescence analysis
pIC50: −log10 of the molar value.
property: pIC50

The reported value for "COc1cc(-c2nc(Nc3ccc4nc(C)cc(N)c4c3)c3sccc3n2)cc(OC)c1OC" in terms of pIC50 is < 4.00
